experiment: Stability test: storage in nitrogen-filled sealed bottles, purity test by HPLC every month; assay type: physicochemical; conditions: Table 2, stored at 2° C. to 8° C., 1 month
purity by HPLC, Time (month) 1 values for the compounds below.
Reply with the value as a number alone.

NC(=O)c1ccc[n+]([C@@H]2O[C@H](CO)[C@@H](O)[C@H]2O)c1.O=C([O-])C[C@H](O)C(=O)O [Example 3, malate of NR (1:1)] : 98.482

Alright, here's another compound for you.
Item NC(=O)c1ccc[n+]([C@@H]2O[C@H](CO)[C@@H](O)[C@H]2O)c1.[Cl-] [Comparative Example, chlorine salt of NR, reference compound] has what recorded purity by HPLC, Time (month) 1?
98.171

----------
As shown below, each of these compounds has a reported purity by HPLC, Time (month) 3 value.
test: Stability test: storage in nitrogen-filled sealed bottles, purity test by HPLC every month; assay type: physicochemical; settings: Table 1, stored at −20° C., 3 months
API doc: respond with a numeric literal and nothing else, no unit.

NC(=O)c1ccc[n+]([C@@H]2O[C@H](CO)[C@@H](O)[C@H]2O)c1.O=C([O-])C[C@H](O)C(=O)O [Example 3, malate of NR (1:1)] : 98.288

Entry NC(=O)c1ccc[n+]([C@@H]2O[C@H](CO)[C@@H](O)[C@H]2O)c1.O=C(O)CC(O)(CC(=O)O)C(=O)O.O=C(O)CC(O)(CC(=O)O)C(=O)[O-] [Example 2, citrate of NR (1:2)] : reported purity by HPLC, Time (month) 3 = ?
98.168

Reported purity by HPLC, Time (month) 3, compound NC(=O)c1ccc[n+]([C@@H]2O[C@H](CO)[C@@H](O)[C@H]2O)c1.[Cl-] [Comparative Example, chlorine salt of NR, reference compound] : ____
97.701

# lookup: purity by HPLC, Time (month) 3 of NC(=O)c1ccc[n+]([C@@H]2O[C@H](CO)[C@@H](O)[C@H]2O)c1.O=C(O)CC(O)(CC(=O)O)C(=O)[O-] [Example 1, citrate of NR (1:1)]
98.190

// purity by HPLC, Time (month) 3 lookup, key: NC(=O)c1ccc[n+]([C@@H]2O[C@H](CO)[C@@H](O)[C@H]2O)c1.O=C(O)C[C@H](O)C(=O)O.O=C([O-])C[C@H](O)C(=O)O [Example 4, malate of NR (1:2)]
98.316

----------
experiment: Stability test: storage in nitrogen-filled sealed bottles, purity test by HPLC every month; assay type: physicochemical; settings: Table 1, stored at −20° C., 6 months
Below is a list of entries, each paired with its recorded purity by HPLC, Time (month) 6 value.

Below are worked cases with known answers.
NC(=O)c1ccc[n+]([C@@H]2O[C@H](CO)[C@@H](O)[C@H]2O)c1.O=C(O)CC(O)(CC(=O)O)C(=O)[O-] [Example 1, citrate of NR (1:1)] : 97.814
NC(=O)c1ccc[n+]([C@@H]2O[C@H](CO)[C@@H](O)[C@H]2O)c1.O=C([O-])C[C@H](O)C(=O)O [Example 3, malate of NR (1:1)] : 97.645
NC(=O)c1ccc[n+]([C@@H]2O[C@H](CO)[C@@H](O)[C@H]2O)c1.O=C(O)C[C@H](O)C(=O)O.O=C([O-])C[C@H](O)C(=O)O [Example 4, malate of NR (1:2)] : 98.100

Using the record for NC(=O)c1ccc[n+]([C@@H]2O[C@H](CO)[C@@H](O)[C@H]2O)c1.O=C(O)CC(O)(CC(=O)O)C(=O)O.O=C(O)CC(O)(CC(=O)O)C(=O)[O-] [Example 2, citrate of NR (1:2)] , report its purity by HPLC, Time (month) 6.
97.788

Given the entry NC(=O)c1ccc[n+]([C@@H]2O[C@H](CO)[C@@H](O)[C@H]2O)c1.[Cl-] [Comparative Example, chlorine salt of NR, reference compound] , report its measured purity by HPLC, Time (month) 6.
97.210
